assay: Ratio of compound selectivity index to zidovudine selectivity index for human MT4 cells
Property name: ratio of compound SI to zidovudine SI
No unit in the answer, only the number.

Q. Name the recorded ratio of compound SI to zidovudine SI of the item N#C/C=C/c1ccc(C(NN)c2ccnc(Nc3ccc(C#N)cc3)n2)cc1 (stereo unspecified) in your answer.
A. 7

###

experiment: Cytotoxicity against human MT4 cells after 5 days by MTT assay; format: cell-based
Assign CC50 at 120 h to each entry below.
# value in µM; strip the unit string

Q. Name the recorded CC50 at 120 h of the item CC(C)NC(c1ccc(/C=C/C#N)cc1)c1ccnc(Nc2ccc(C#N)cc2)n1 (stereo not given) in your answer.
A. 32.3

Q. Name the recorded CC50 at 120 h of the item CC(C)NC(c1ccc(C#N)cc1)c1ccnc(Nc2ccc(C#N)cc2)n1 (stereo not given) in your answer.
A. 69.2

Q. Name the recorded CC50 at 120 h of the item N#Cc1ccc(Nc2nccc(C(NC3CC3)c3ccccc3Cl)n2)cc1 (stereo not given) in your answer.
A. 37.9

Q. Name the recorded CC50 at 120 h of the item CCCNC(c1ccnc(Nc2ccc(C#N)cc2)n1)c1ccccc1Cl (stereo not given) in your answer.
A. 68.5

###

test system: Human immunodeficiency virus 1; assay: Antiviral activity against HIV1 harboring reverse transcriptase K103N/Y181C mutant infected in human MT4 cells assessed as inhibition of virus-induced cytopathogenicity after 5 days by MTT assay; assay type: functional, organism-based; conditions: Human immunodeficiency virus 1, MT4, 120 h
Assign IC50 to each entry below.

Q. Name the recorded IC50 of the item CCCNC(c1ccc(/C=C/C#N)cc1)c1ccnc(Nc2ccc(C#N)cc2)n1 (stereo not given) in your answer.
A. > 37.3 µM

Q. Name the recorded IC50 of the item CC(O)CNC(c1ccc(C#N)cc1)c1ccnc(Nc2ccc(C#N)cc2)n1 (stereo not given) in your answer.
A. > 65 µM

Q. Name the recorded IC50 of the item CNC(c1ccc(C#N)cc1)c1ccnc(Nc2ccc(C#N)cc2)n1 (stereo not given) in your answer.
A. > 189 µM

Q. Name the recorded IC50 of the item Cc1cn([C@H]2C[C@H](N=[N+]=[N-])[C@@H](CO)O2)c(=O)[nH]c1=O [ZIDOVUDINE] in your answer.
A. 0.0077 µM

Q. Name the recorded IC50 of the item CC(O)CNC(c1ccnc(Nc2ccc(C#N)cc2)n1)c1ccccc1Cl (stereo not given) in your answer.
A. > 34.7 µM

Q. Name the recorded IC50 of the item CNC(c1ccc(/C=C/C#N)cc1)c1ccnc(Nc2ccc(C#N)cc2)n1 (stereo not given) in your answer.
A. > 41.4 µM

Q. Name the recorded IC50 of the item CC(C)NC(c1ccnc(Nc2ccc(C#N)cc2)n1)c1ccccc1Cl (stereo not given) in your answer.
A. > 35.5 µM

Q. Name the recorded IC50 of the item O=C1Nc2ccc(Cl)cc2[C@@](C#CC2CC2)(C(F)(F)F)O1 [EFAVIRENZ] in your answer.
A. 0.16 µM

Q. Name the recorded IC50 of the item N#Cc1ccc(Nc2nccc(C(NC3CC3)c3ccccc3Cl)n2)cc1 (stereo not given) in your answer.
A. > 37.9 µM

Q. Name the recorded IC50 of the item Cc1ccnc2c1NC(=O)c1cccnc1N2C1CC1 [NEVIRAPINE] in your answer.
A. 0.9 µM
